Ref: patent US20250145711A1

# test.system: T1, TRCW5 antigen (CD3δε-Fc-Avi) (biotinylated (site not stated))
# T1 construct: also called recombinant CD3
# T1 sequence (chain, as listed by the source mutant limits assumed): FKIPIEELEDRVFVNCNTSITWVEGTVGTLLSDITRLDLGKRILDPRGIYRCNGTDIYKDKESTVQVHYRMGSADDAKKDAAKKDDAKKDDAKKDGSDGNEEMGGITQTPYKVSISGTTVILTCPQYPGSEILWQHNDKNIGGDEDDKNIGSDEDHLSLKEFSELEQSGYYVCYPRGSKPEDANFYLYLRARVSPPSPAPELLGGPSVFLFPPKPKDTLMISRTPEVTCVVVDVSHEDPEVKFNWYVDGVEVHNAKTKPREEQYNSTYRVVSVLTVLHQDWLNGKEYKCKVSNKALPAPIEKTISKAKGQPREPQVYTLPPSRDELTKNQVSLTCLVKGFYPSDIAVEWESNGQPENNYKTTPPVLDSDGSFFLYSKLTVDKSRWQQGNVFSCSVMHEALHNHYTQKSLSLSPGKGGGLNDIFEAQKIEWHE
# assay.method.text: ELISA after heat
# cutoff 10% applies to % Retained 65° C.; >= gives met, < gives not met

binder	assigned.label
CD3B2076 (scFv) scFv: QVQLVQSGAEVKKPGSSVKVSCKASGYTFTRSTMHWVRQAPGQGLEWIGYINPSSAYTNYAQKFQGRVTLTADKSTSTAYMELSSLRSEDTAVYYCASPQVHYDYNGFPYWGQGTLVTVSSGGSEGKSSGSGSESKSTGGSEIVLTQSPATLSASPGERVTLSCSASSSVSYMNWYQQKPGQAPRRLIYDSSKLASGVPARFSGSGSGRDYTLTISSLEPEDFAVYYCQQWSRNPPTFGGGTKVEIK	not met
CD3B2088 (scFv) scFv: QVQLVQSGAEVKKPGSSVKVSCKASGYTFTRSTMHWVRQAPGQGLEWMGYINPSSAYTNYAQKFQGRVTLTADKSTSTAYMELSSLRSEDTAVYYCASPQVHYDYNGFPYWGQGTLVTVSSGGSEGKSSGSGSESKSTGGSEIVLTQSPATLSASPGERVTLSCSASSSVSYMNWYQQKPGQSPRRWIYDSSKLASGVPARFSGSGSGRDYTLTISSLEPEDFAVYYCQQWSRNPPTFGGGTKVEIK	met
CD3B2057 (scFv) scFv: QVQLVQSGAEVKKPGSSVKVSCKASGYTFTRSTMHWVRQAPGQGLEWIGYINPSSAYTNYNQKFQGRVTLTADKSTSTAYMELSSLRSEDTAVYYCASPQVHYDYNGFPYWGQGTLVTVSSGGSEGKSSGSGSESKSTGGSEIVLTQSPATLSASPGERVTLSCSASSSVSYMNWYQQKPGQAPRRLIYDSSKLASGVPARFSGSGSGRDYTLTISSLEPEDFAVYYCQQWSRNPPTFGGGTKVEIK	not met
CD3B2054 (scFv) scFv: QVQLVQSGAEVKKPGSSVKVSCKASGYTFTRSTMHWVKQAPGQGLEWMGYINPSSAYTNYAQKFQGRVTLTADKSTSTAYMELSSLRSEDTAVYYCASPQVHYDYNGFPYWGQGTLVTVSSGGSEGKSSGSGSESKSTGGSEIVLTQSPATLSASPGERVTLSCSASSSVSYMNWYQQKPGQAPRRLIYDSSKLASGVPARFSGSGSGRDYTLTISSLEPEDFAVYYCQQWSRNPPTFGGGTKVEIK	met
CD3B2066 (scFv) scFv: QVQLVQSGAEVKKPGSSVKVSCKASGYTFTRSTMHWVRQAPGQGLEWMGYINPSSAYTNYNQKFQGRVTLTADKSTSTAYMELSSLRSEDTAVYYCASPQVHYDYNGFPYWGQGTLVTVSSGGSEGKSSGSGSESKSTGGSEIVLTQSPATLSASPGERVTLSCSASSSVSYMNWYQQKPGTSPRRWIYDSSKLASGVPARFSGSGSGRDYTLTISSLEPEDFAVYYCQQWSRNPPTFGGGTKVEIK	met
